- testSystem: CYP3A4 (Homo sapiens)
- Sequence (P08684 whole entry): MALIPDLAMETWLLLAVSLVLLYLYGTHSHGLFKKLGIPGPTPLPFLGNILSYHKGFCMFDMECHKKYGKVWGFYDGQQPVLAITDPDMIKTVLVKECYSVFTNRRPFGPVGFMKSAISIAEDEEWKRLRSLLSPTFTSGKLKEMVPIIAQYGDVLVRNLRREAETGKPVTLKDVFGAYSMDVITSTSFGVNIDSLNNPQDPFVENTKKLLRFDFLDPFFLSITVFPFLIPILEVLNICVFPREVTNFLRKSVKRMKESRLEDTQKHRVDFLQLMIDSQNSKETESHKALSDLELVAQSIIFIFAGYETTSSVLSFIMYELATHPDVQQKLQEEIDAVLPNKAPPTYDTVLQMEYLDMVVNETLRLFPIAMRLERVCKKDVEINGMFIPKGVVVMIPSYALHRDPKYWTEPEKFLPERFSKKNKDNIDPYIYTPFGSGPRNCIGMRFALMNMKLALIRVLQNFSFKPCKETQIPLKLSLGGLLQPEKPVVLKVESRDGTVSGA
- protocolDescription: clinical
- setupConditions: both, human, in vivo, 3 mg

- compound: "Cc1ncc2n1-c1ccc(Cl)cc1C(c1ccccc1F)=NC2 [Midazolam, midazolam]"
  testSystem: "CYP3A4 (Homo sapiens)"
  AUC(0-t) [ng·h/mL]: 64.7

---

- testSystem: CYP2C9 (Homo sapiens, UniProt P11712)
- Sequence (P11712 whole entry): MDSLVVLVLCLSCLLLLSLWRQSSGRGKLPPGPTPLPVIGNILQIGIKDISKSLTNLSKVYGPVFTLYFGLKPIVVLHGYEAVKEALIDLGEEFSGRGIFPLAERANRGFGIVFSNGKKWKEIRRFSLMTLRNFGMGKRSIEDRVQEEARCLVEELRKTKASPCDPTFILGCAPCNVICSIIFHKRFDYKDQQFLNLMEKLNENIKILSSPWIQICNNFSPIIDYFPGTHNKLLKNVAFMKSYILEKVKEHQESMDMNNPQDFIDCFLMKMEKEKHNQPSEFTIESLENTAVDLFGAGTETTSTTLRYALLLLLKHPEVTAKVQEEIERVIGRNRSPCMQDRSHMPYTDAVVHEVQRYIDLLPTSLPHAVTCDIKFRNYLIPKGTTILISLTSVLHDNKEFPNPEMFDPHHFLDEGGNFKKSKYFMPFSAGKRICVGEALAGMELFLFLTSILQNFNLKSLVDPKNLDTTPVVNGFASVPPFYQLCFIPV
- protocolDescription: clinical
- setupConditions: both, human, plasma, oral, 200 mg
quantityMeasured: AUC(0-t) (ng·h/mL)

- smilesStructure: "Cc1ccc(-c2cc(C(F)(F)F)nn2-c2ccc(S(N)(=O)=O)cc2)cc1"
  testSystem: "CYP2C9 (Homo sapiens, UniProt P11712)"
  quantitativeResult: 5170
